The origin of these recorded values is patent US6699846B2.

- test_name: USP rabbit pyrogen test
- Type: in vivo
- reported_conditions: 2.5 μg dose, class symbols

compound	pyrogenicity
CCCCCCCCCCCCCC(=O)O[C@H](CCCCCCCCCCC)CC(=O)NCCO[C@@H]1O[C@H](CO)[C@@H](OP(=O)(O)O)[C@H](OC(=O)C[C@@H](CCCCCCCCCCC)OC(=O)CCCCCCCCCCCCC)[C@H]1NC(=O)C[C@@H](CCCCCCCCCCC)OC(=O)CCCCCCCCCCCCC	− (−<1° C.)
CCCCCCCCCCCC(CC(=O)NC1C(O)OC(COC2OC(CO)C(OP(=O)(O)O)C(OC(=O)CC(CCCCCCCCCCC)OC(=O)CCCCC)C2NC(=O)CC(CCCCCCCCCCC)OC(=O)CCCCC)C(O)C1O)OC(=O)CCCCC (stereo not shown)	− (−<1° C.)
